Data provenance is patent US20100210649A1.

Test system: H2030
assay_summary: Non Small Cell Lung Cancer proliferation assay (Alamar Blue reduction), H2030
Format: cell-based, human
details: Homo sapiens, NCI-H2030; primary screening; 10 μM compound in 1% DMSO (v/v); read-out: percentage inhibition H2030
assay_readout: inhibition at 10 µM (%)
Note: unit % is implicit; provide only the numeric part.

In the examples that follow, each entry is paired with its recorded inhibition at 10 µM.
[[record]]
compound = "O=C(COc1cnn(-c2ccccc2)c(=O)c1Cl)c1ccccc1 [compound 199759]"
observed_measurement = 9

[[record]]
compound = "O=c1ccc(Cl)nn1-c1ccccc1 [compound 195149]"
observed_measurement = -5

[[record]]
compound = "CSc1cnn(-c2ccccc2)c(=O)c1Cl [compound 104185]"
observed_measurement = -2

[[record]]
compound = "COc1ccc(-n2nc(C(=O)c3cccs3)cc(-c3nc4ccccc4[nH]3)c2=N)cc1 [compound 186925]"
observed_measurement = 1

[[record]]
compound = "O=c1c(SCc2ccccc2)cc(Cl)nn1-c1ccccc1 [compound 208702]"
observed_measurement = -15


Req: If you can, please state the reported inhibition at 10 µM value of O=c1c(SCc2ccccc2)c(Cl)cnn1-c1ccccc1 [compound 182827] .
Resp: -6

Req: If you can, please state the reported inhibition at 10 µM value of O=c1c(Cl)c(N2CCN(CCO)CC2)cnn1-c1cccc(Cl)c1 [compound 194617] .
Resp: -4

Req: If you can, please state the reported inhibition at 10 µM value of O=c1c(SCc2ccc(Cl)cc2Cl)c(SCc2ccc(Cl)cc2Cl)cnn1-c1ccccc1 [compound 208619] .
Resp: -12

Req: If you can, please state the reported inhibition at 10 µM value of COc1c(Cl)cnn(-c2cccc(C)c2)c1=O [compound 104415] .
Resp: -3

Req: If you can, please state the reported inhibition at 10 µM value of O=c1c(Cl)c(Cl)cnn1-c1cccc(Cl)c1 [compound 104188] .
Resp: -4

Req: If you can, please state the reported inhibition at 10 µM value of CCOC(=O)N(CCOc1cnn(-c2ccccc2)c(=O)c1)C(=O)OCC [compound 199761] .
Resp: 6

Req: If you can, please state the reported inhibition at 10 µM value of Cc1c(C(=O)c2ccccc2)nn(-c2ccccc2Cl)c(=N)c1C#N [compound 227247] .
Resp: -1

Req: If you can, please state the reported inhibition at 10 µM value of COc1cnn(-c2ccccc2)c(=O)c1N(C)C [compound 103971] .
Resp: 1

Req: If you can, please state the reported inhibition at 10 µM value of CCOc1cnn(-c2ccccc2)c(=O)c1Cl [compound 104217] .
Resp: 6

Req: If you can, please state the reported inhibition at 10 µM value of O=c1ccc(Oc2nc(N3CCCCC3)nc(N3CCCCC3)n2)nn1-c1ccccc1 [compound 196618] .
Resp: 12

Req: If you can, please state the reported inhibition at 10 µM value of O=c1c(SCc2ccccc2)c(N2CCCCC2)cnn1-c1ccccc1 [compound 195989] .
Resp: 6

Req: If you can, please state the reported inhibition at 10 µM value of CSc1cnn(-c2ccccc2)c(=O)c1SCc1ccccc1 [compound 224764] .
Resp: -10

Req: If you can, please state the reported inhibition at 10 µM value of COc1ccc(-n2nc(C(=O)c3ccccc3)cc(-c3nc4ccccc4[nH]3)c2=N)cc1 [compound 193067] .
Resp: 4

Req: If you can, please state the reported inhibition at 10 µM value of CCCCSc1cnn(-c2ccccc2)c(=O)c1SCCCC [compound 224766] .
Resp: 95

Req: If you can, please state the reported inhibition at 10 µM value of O=c1c2c(cnn1-c1ccccc1)SCCS2 [compound 195988] .
Resp: 7

Req: If you can, please state the reported inhibition at 10 µM value of CN1CCN(c2cnn(-c3ccc(Cl)cc3)c(=O)c2Cl)CC1 [compound 194618] .
Resp: -6

Req: If you can, please state the reported inhibition at 10 µM value of O=c1c(Cl)c(SC(c2ccccc2)c2ccccc2)cnn1-c1ccccc1 [compound 208697] .
Resp: 4

Req: If you can, please state the reported inhibition at 10 µM value of O=c1c(SCc2ccccc2)c(N2CCOCC2)cnn1-c1ccccc1 [compound 224770] .
Resp: -8

Req: If you can, please state the reported inhibition at 10 µM value of COc1cnn(-c2ccccc2)c(=O)c1Cl [compound 104386] .
Resp: 6

Req: If you can, please state the reported inhibition at 10 µM value of O=c1c(Sc2ccccc2)c(Sc2ccccc2)cnn1-c1ccccc1 [compound 195070] .
Resp: -7

Req: If you can, please state the reported inhibition at 10 µM value of N=c1c(-c2nc3ccccc3[nH]2)cc(C(=O)c2ccco2)nn1-c1ccccc1 [compound 181801] .
Resp: -7

Req: If you can, please state the reported inhibition at 10 µM value of O=c1c(Br)c(-n2cc(CO)nn2)cnn1-c1ccccc1 [compound 224256] .
Resp: 1
